organism: Mus musculus; assay: Compound was tested for […] activity by phenylquinone writhing method in mice.; format: functional
Record form. Attribute: ED50. Fill in for each entry.
Kindly provide the numeric value in mg/kg only, without the unit symbol.

Challenge: Please give the documented ED50 of CCCn1nc2oc(=O)cc(C)c2c1C
Response given: 72.6

Challenge: Fill in ED50 for record Cc1cc(=O)oc2c1c(C)nn2C
Response given: 11.6

Challenge: Please report the measured ED50 for CCn1nc2oc(=O)cc(C)c2c1C
Response given: 14.6

Challenge: Dear colleague, please send me the reported ED50 for Cc1cc(=O)oc2nn(C)c(C)c12 when you can.
Response given: 6.09

Challenge: Provide measured ED50 value, entry: CCCCCn1nc2oc(=O)cc(C)c2c1C
Response given: 60.6

Challenge: Return reported ED50. Input molecule: Cc1cc(=O)oc2c1c(C)nn2CCO
Response given: 100

Challenge: Respond only with ED50 recorded for CCN(CC)CCn1nc2oc(=O)cc(C)c2c1C
Response given: 100

Challenge: Item CCCn1nc(C)c2c(C)cc(=O)oc21 : provide ED50
Response given: 54.3
